System: S. aureus
Assay: Minimum inhibitory concentrations (MICs) for S. aureus of exemplary compounds (Table 2)
Type: cell-based
Conditions: Staphylococcus aureus, minimum inhibitory concentrations for S. aureus; read-out: MICs
Excerpt: Exemplary compounds in accordance with the invention are listed in Table 2 with their minimum inhibitory concentrations (MICs) (μg/mL) for S. aureus: Furthermore, the antibiotic compounds can be assayed for anti-proliferative or anti-infective properties on a cellular level. For example, where the target organism is a microorganism, the activity of compounds of interest can be assayed by growing the microorganisms of interest in media either containing or lacking the compound. […]
PROPERTY MEASURED: MIC (µg/mL)
Report the figure in µg/mL without appending any unit label.

Use the examples below as a reference point.
>>> measured_value("CC(=O)NC[C@H]1CN(c2ccc(-c3ccc([C@H](O)CN4CCCC(F)(F)C4)cc3)c(F)c2)C(=O)O1 [Compound 1075]")
2
>>> measured_value("CC(=O)NC[C@H]1CN(c2ccc(-c3ccc(C(=N)NCc4ccco4)cc3)c(F)c2)C(=O)O1 [Compound 4222]")
16
>>> measured_value("CC(=O)NC[C@H]1CN(c2ccc(-c3ccc(CSc4nccs4)cc3)c(F)c2)C(=O)O1 [Compound 2030]")
1

# input for lookup
Prompt: What MIC appears in the records for this molecule with S. aureus? CC(=O)NC[C@H]1CN(c2ccc(-c3ccc([C@@H](NCc4ccncc4)C(N)=O)cc3)c(F)c2)C(=O)O1 [Compound 4184]
Completion: 16

----------
Tested on: S. aureus
Test: Minimum inhibitory concentrations (MICs) for S. aureus of exemplary compounds (Table 2)
Type: cell-based
Conditions: Staphylococcus aureus, minimum inhibitory concentrations for S. aureus; read-out: MICs
PROPERTY MEASURED: MIC
Number plus unit, in that order.

Use the examples below as a reference point.
>>> measured_value("CC(=O)NC[C@H]1CN(c2ccc(-c3ccc(CNCc4c(N)oc5ccccc5c4=O)cc3)c(F)c2)C(=O)O1 [Compound 4129]")
"4 µg/mL"
>>> measured_value("CC(=O)NC[C@H]1CN(c2ccc(-c3ccc(CNCc4nn(C)cc4Cl)cc3)c(F)c2)C(=O)O1 [Compound 4139]")
"2 µg/mL"
>>> measured_value("Cn1nnnc1SC[C@H]1CN(c2ccc(-c3ccc(CNCc4ccncc4)cc3)c(F)c2)C(=O)O1 [Compound 4231]")
"32 µg/mL"

Prompt: What MIC appears in the records for this compound with S. aureus? CC(=O)NC[C@H]1CN(c2ccc(-c3ccc(CNC(=O)[C@@H]4C[C@@H](O)CN4)cc3)c(F)c2)C(=O)O1 [Compound 4301]
Completion: 8 µg/mL

Prompt: Entry to check: CC(=O)NC[C@H]1CN(c2ccc(-c3ccc(CNCc4ccc(-n5cccc5)cc4)cc3)c(F)c2)C(=O)O1 [Compound 4147]
Completion: 4 µg/mL

Prompt: Entry to check: CC(=O)NC[C@H]1CN(c2ccc(-c3ccc(CNC(=O)c4ccc5c(c4)OCO5)cc3)c(F)c2)C(=O)O1 [Compound 4014]
Completion: 4 µg/mL

Prompt: Entry to check: CC(=O)NC[C@H]1CN(c2ccc(-c3ccc(CNC(=O)[C@H](Cc4ccccn4)NC(=O)OC(C)(C)C)cc3)c(F)c2)C(=O)O1 [Compound 4303]
Completion: 8 µg/mL

----------
Assay: Approximate solubility in solvents by aliquot addition
Assay type: physicochemical
Conditions: tetrahydrofuran (THF), organic solvent or mixture, thermodynamic from solid, ambient temperature
Protocol: Solubilities of the radezolid free base and radezolid HCl salt in various solvents were estimated and are shown in Tables 10 and 11, respectively, below. A weighed sample was treated with aliquots of test solvent at ambient temperature. Complete dissolution of the test material was determined by visual inspection. […] The actual solubility may be greater than the approximate solubility calculated because of the use of solvent aliquots that were too large or due to a slow rate of dissolution. […]
PROPERTY MEASURED: solubility

Prompt: Which solubility is listed for CC(=O)NC[C@H]1CN(c2ccc(-c3ccc(CNCc4cnn[nH]4)cc3)c(F)c2)C(=O)O1 [Radezolid] ?
Completion: < 1000 µg/mL

----------
Experiment: Approximate solubility in solvents by aliquot addition
Assay type: physicochemical
Conditions: tetrahydrofuran (THF), organic solvent or mixture, thermodynamic from solid, Table 11: Tetrahydrofuran (THF); material never went into solution
Description: Solubilities of the radezolid free base and radezolid HCl salt in various solvents were estimated and are shown in Tables 10 and 11, respectively, below. A weighed sample was treated with aliquots of test solvent at ambient temperature. Complete dissolution of the test material was determined by visual inspection. […] The actual solubility may be greater than the approximate solubility calculated because of the use of solvent aliquots that were too large or due to a slow rate of dissolution. […]
Where a name gives a salt, the structure may show the parent alone.
PROPERTY MEASURED: solubility

Prompt: Which solubility is listed for CC(=O)NC[C@H]1CN(c2ccc(-c3ccc(CNCc4cnn[nH]4)cc3)c(F)c2)C(=O)O1 [Hydrochloride] ?
Completion: < 2000 µg/mL

----------
Recorded MIC values for a group of compounds are listed next.
System: S. aureus
Experiment: Minimum inhibitory concentrations (MICs) for S. aureus of exemplary compounds (Table 2)
Type: cell-based
Settings: Staphylococcus aureus, minimum inhibitory concentrations for S. aureus; read-out: MICs
Report the figure in mg/L without appending any unit label.

Use the examples below as a reference point.
>>> measured_value("CC(=O)NC[C@H]1CN(c2ccc(-c3ccc(CNC(=O)/C=C/c4cncn(C)c4=O)cc3)c(F)c2)C(=O)O1 [Compound 4007]")
1
>>> measured_value("CC(=O)NC[C@H]1CN(c2ccc(-c3ccc(CNCCSc4ncccn4)cc3)c(F)c2)C(=O)O1 [Compound 5009]")
1
>>> measured_value("CC(=O)NC[C@H]1CN(c2ccc(-c3ccc(Cn4nnc(C(N)=O)c4N)cc3)c(F)c2)C(=O)O1 [Compound 1026]")
2

# input for lookup
Prompt: Which MIC is listed for CC(=O)NC[C@H]1CN(c2ccc(-c3ccc(CNCc4cccnc4N)cc3)c(F)c2)C(=O)O1 [Compound 4152] ?
Completion: 2

----------
Tested on: F. magna
Test: Broth microdilution MIC
Type: cell-based
Settings: Finegoldia magna, ATCC15794; F. magna ATCC 15794
PROPERTY MEASURED: MIC (µg/mL)
Report the figure in µg/mL without appending any unit label.

>>> measured_value("CC(=O)NC[C@H]1CN(c2ccc(N3CCOCC3)c(F)c2)C(=O)O1")
1
>>> measured_value("Cc1ncc([N+](=O)[O-])n1CCO")
0.125
>>> measured_value("CC(=O)NC[C@H]1CN(c2ccc(-c3ccc(CNCc4cnn[nH]4)cc3)c(F)c2)C(=O)O1")
0.125
>>> measured_value("C[C@H]1c2cccc(O)c2C(=O)C2=C(O)[C@]3(O)C(=O)C(C(N)=O)=C(O)[C@@H](N(C)C)[C@@H]3[C@@H](O)[C@@H]21")
0.125

# input for lookup
Prompt: What MIC appears in the records for this compound with F. magna? CN(C)[C@@H]1C(O)=C(C(N)=O)C(=O)[C@@]2(O)C(O)=C3C(=O)c4c(O)cccc4[C@@](C)(O)[C@H]3C[C@@H]12
Completion: 0.25

----------
Tested on: S. aureus
Assay: Minimum inhibitory concentrations (MICs) for S. aureus of exemplary compounds (Table 2)
Assay type: cell-based
Settings: Staphylococcus aureus, minimum inhibitory concentrations for S. aureus; read-out: MICs
PROPERTY MEASURED: MIC (µg/mL)
Report the figure in µg/mL without appending any unit label.

Use the examples below as a reference point.
>>> measured_value("CC(=O)NC[C@H]1CN(c2ccc(-c3ccc(CSc4cnn[nH]4)nc3)c(F)c2)C(=O)O1 [Compound 2040]")
0.25
>>> measured_value("CC(=O)NC[C@H]1CN(c2ccc(-c3ccc(CN4CCOC4=O)cc3)c(F)c2)C(=O)O1 [Compound 1101]")
0.25

Prompt: What MIC appears in the records for this compound with S. aureus? CC(=O)NC[C@H]1CN(c2ccc(-c3ccc(CNCc4ccc(Cl)cc4Cl)cc3)c(F)c2)C(=O)O1 [Compound 4064]
Completion: 2

Prompt: Entry to check: CC(=O)NC[C@H]1CN(c2ccc(-c3ccc(CNCc4nccn4C)cc3)c(F)c2)C(=O)O1 [Compound 4076]
Completion: 4

----------
Tested on: S. aureus
Assay: Minimum inhibitory concentrations (MICs) for S. aureus of exemplary compounds (Table 2)
Type: cell-based
Conditions: Staphylococcus aureus, minimum inhibitory concentrations for S. aureus; read-out: MICs
PROPERTY MEASURED: MIC

Use the examples below as a reference point.
>>> measured_value("CC(=O)NC[C@H]1CN(c2ccc(-c3ccc(CNS(=O)(=O)c4cccc5cccnc45)cc3)c(F)c2)C(=O)O1 [Compound 2051]")
"4 µg/mL"
>>> measured_value("CC(=O)NC[C@H]1CN(c2ccc(-c3ccc(CNCc4ncc[nH]4)cc3)c(F)c2)C(=O)O1 [Compound 4091]")
"8 µg/mL"
>>> measured_value("CC(=O)NC[C@H]1CN(c2ccc(-c3ccc([C@H](O)Cn4ccnn4)cc3)c(F)c2)C(=O)O1 [Compound 1061]")
"1 µg/mL"
>>> measured_value("CC(=O)NC[C@H]1CN(c2ccc(-c3ccc(C[S+]([O-])c4nccs4)cc3)c(F)c2)C(=O)O1 (some centres unmarked) [Compound 2036]")
"1 µg/mL"
>>> measured_value("CC(=O)NC[C@H]1CN(c2ccc(-c3ccc(Cn4cnc5c(NCC(F)F)ncnc54)cc3)c(F)c2)C(=O)O1 [Compound 1103]")
"1 µg/mL"

Prompt: Which MIC is listed for CC(=O)NC[C@H]1CN(c2ccc(-c3ccc(CNC(=O)Cn4cc(CO)nn4)cc3)c(F)c2)C(=O)O1 [Compound 4240] ?
Completion: 16 µg/mL

Prompt: Entry to check: CC(=O)NC[C@H]1CN(c2ccc(-c3ccc(CNC(=O)[C@H](N)Cc4cnc[nH]4)cc3)c(F)c2)C(=O)O1 [Compound 4292]
Completion: 16 µg/mL

Prompt: Entry to check: CC(=O)NC[C@H]1CN(c2ccc(-c3ccc(Cn4nnc(C)n4)cc3)c(F)c2)C(=O)O1 [Compound 1059]
Completion: 0.5 µg/mL

Prompt: Entry to check: CC(=O)NC[C@H]1CN(c2ccc(-c3ccc(CSc4ccncc4)cc3)c(F)c2)C(=O)O1 [Compound 2019]
Completion: 1 µg/mL

Prompt: Entry to check: CCOC(=O)c1c[nH]c(SCCNCc2ccc(-c3ccc(N4C[C@H](CNC(C)=O)OC4=O)cc3F)cc2)n1 [Compound 5010]
Completion: 4 µg/mL

Prompt: Entry to check: CC(=O)NC[C@H]1CN(c2ccc(-c3ccc(CNC(=O)C4(N)CC4)cc3)c(F)c2)C(=O)O1 [Compound 4321]
Completion: 2 µg/mL

Prompt: Entry to check: CC(=O)NC[C@H]1CN(c2ccc(-c3ccc(C(NC(=O)OCc4ccccc4)c4nnn(C)n4)cc3)c(F)c2)C(=O)O1 (mixture of isomers) [Compound 1041]
Completion: 1 µg/mL

Prompt: Entry to check: CC(=O)NC[C@H]1CN(c2ccc(-c3ccc(C(=N)NCc4ccccn4)cc3)c(F)c2)C(=O)O1 [Compound 4097]
Completion: 16 µg/mL

Prompt: Entry to check: CC(=O)NC[C@H]1CN(c2ccc(-c3ccc(CN4CCN(c5ncc(C(F)(F)F)cc5Cl)CC4)cc3)c(F)c2)C(=O)O1 [Compound 1038]
Completion: 128 µg/mL
